Biological target: T1, human VEGF (hVEGF) (human, UniProt P15692 181-395)
T1 construct: also called VEGF-A
T1 sequence: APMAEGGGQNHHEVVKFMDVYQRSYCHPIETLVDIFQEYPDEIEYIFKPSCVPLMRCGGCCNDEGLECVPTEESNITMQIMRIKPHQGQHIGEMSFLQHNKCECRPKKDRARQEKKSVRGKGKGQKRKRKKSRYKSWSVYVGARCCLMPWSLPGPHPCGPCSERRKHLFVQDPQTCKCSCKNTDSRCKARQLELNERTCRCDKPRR
Experiment: SPR
OBSERVED PROPERTY: Fold improved (relative to WT)
Answers without a unit are incomplete; give the number and then its unit.

Asked: Data request, read-out Fold improved (relative to WT), for G6.31 HC-N82aR (Fab, name in Kabat numbering, V domains shown, Fab) VH: EVQLVESGGGLVQPGGSLRLSCAASGFTISDYWIHWVRQAPGKGLEWVAGITPAGGYTYYADSVKGRFTISADTSKNTAYLQMRSLRAEDTAVYYCARFVFFLPYAMDYWGQGTLVTVSS VL: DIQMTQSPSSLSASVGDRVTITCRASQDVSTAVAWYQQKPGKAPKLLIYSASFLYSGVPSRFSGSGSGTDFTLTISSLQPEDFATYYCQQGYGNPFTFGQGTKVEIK
Given back: 6.8 fold
